tested on: Escherichia coli; experiment: Antibacterial activity against Escherichia coli ATCC 8793 at 30 ug/ml after 24 hr by paper disk diffusion method; assay type: functional; conditions: ATCC 8793, 24 h, read-out: DIZ
readout label: zone of inhibition at 30 µg/mL (mm)
Supply the numeric figure in mm, leaving out any unit text.

Determine its reported zone of inhibition at 30 µg/mL: NCC[C@H](O)C(=O)N[C@@H]1C[C@H](N)[C@@H](O[C@H]2O[C@H](CN)[C@@H](O)[C@H](O)[C@H]2O)[C@H](O)[C@H]1O[C@H]1O[C@H](CO)[C@@H](O)[C@H](N)[C@H]1O [AMIKACIN] 21.3

Give the value of zone of inhibition at 30 µg/mL reported for the following: COc1ccc(-c2nnc(S)n2NC(=O)CN(C(C)C)C(C)C)cc1 9.43

Specify measured zone of inhibition at 30 µg/mL for CCCCCN(CCCCC)CC(=O)Nn1c(S)nnc1-c1ccc(C)cc1 . 6.26

Give the reported value of zone of inhibition at 30 µg/mL for this record: CCCN(CCC)CC(=O)Nn1c(S)nnc1-c1ccc(OC)cc1 11.1

Source: ChEMBL document CHEMBL3045810
